- measurement_protocol: protease stability score; higher = more stable; yeast display proteolysis, trypsin and chymotrypsin;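 also: relative to predicted unfolded state with 0 unfolded-like and 1 meaning tenfold more protease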
If the reported protease stability score equals or exceeds 1, assign MET. If not, assign NOT MET.

For orientation, consider the following solved cases.
SEDHRMMKEALDKLIDSIETGDPELYLRLFDPDTQTRIGDKHIHGWEEIEKIFRKILERFDHFEHMHLEHFDIQGNYIHLDIRLWGKVNGKRITLNIRVVVVKYNGRWTIREESLT; MET
DDYDHITELALREIERVLHTGDEEDLRRMIDPHVRIDIDGKDIHGWENLFKHIEEERRRFPNLQIDWELKDTRKQGDKIILHGQIHIQQGDKEIERDFTIKAVKINGQWIVKTFHIR; MET
TEEERHIKEMLELFLEFFKTGNEDLFKELADPHVRLHLNINGKKERVHGMDHAVKWLSQLRVHSFHLKDERAVDGVNEVDQESDVEWNGQRFETTVRLHVYIVNGKLHHLSIEIK; MET
REEEKIYHHLTEMWYEMLHTGNEEERERLFDPNTRVNIGDYHFHGREKLLEAYRRWRHMLGIKHYEVDRVEVIGDKVFSQGHSKAENHRLDVRIVIVVWNGRLKETSVDIH; MET
SEEEETAYKVMEEVISAWLTGDEDLFNELADPDVRFELEFNGKKIDIIGRELVSKYWRDVIDHIRVEVVLRDYRMIDGRIETETEIYVEVGDKSHSVETRLHMEVIDGRLRTVKIKVR; MET

Qu. Hello, I need to know if SETEKLLHEILEKLIRNEATGNFENIEQLLDPHYRVEIGEFEMHGMEEIIRWLNWVKREMRIKRRHIRTMTWQGDKALVDTELHIQVNGQHIRLDEYIVVLIINGRVKEVRVEHR has measured protease stability score not below 1. Thanks!
Ans. NOT MET

Qu. Quick check, protease stability score >= 1? SEEERILEEILRRLLRLLATGDWEDLHKLFDPTVRIVFNGQLLHGWHEFIRTMHQLWVDRIRVERVRFQGDFQHYETRNDITINGVRIETESRVHVKIVDGRIKYFEFELT
Ans. MET

Qu. Hi team, for NEHKEEALHALQLWLRYYETGNEDSLREMLDPNVRVVINGKELHGMELFLDYIVDTRDRIKGLRIIIDDIEIHYVGDKVHVNIRGISYFNGREHEVEINIFSRKINGKWYLSSLELRVN , is the recorded protease stability score at or above 1?
Ans. MET

Qu. Assess whether reported protease stability score for RESDEEREEFYKLLMHAYETGDERILNELMDPNVQIHQGEWHLHGRKDLRRRFKHLRIDHVDHITRDMRVVGDKIEVHGHIIVEGTVDGVRDTKSFDVHILTEKIDGQWFIKSVHIR sits at 1 or higher.
Ans. NOT MET

Qu. Does protease stability score meet or surpass 1 for DETKQETDRLVKMMLHAITTGDEKFIHHLIDPNVRLEVGDKSFHGREDAFEMLRKEWEDLGVKVYKPETYKSQGDWVHFHGKEHVGDKEIELNIHIHVVDGKIKFIRIEIH ?
Ans. MET

Qu. Does DDRKEMSEEASEIFLHLLATGDERTERKLLDPHVRLIIGDKHLHGREEFVRFKHEEMRDLGVTNVEVREKDVKVYDGKIELHGHFNVNGKWVEIHVIAEKFNGRWILKRVNFH have a reported protease stability score of at least 1?
Ans. NOT MET
